- TESTED SYSTEM: p53/hDM2 interaction (Homo sapiens, UniProt Q00987)
- Construct: hDM2 17-126 was diluted into buffer
- PROCEDURE DETAILS: Fluorescence anisotropy competition assay, p53/hDM2
- PROTOCOL CONDITIONS: hDM2 154 nM, FITC-p53 54.5 nM, phosphate buffer pH 7.5, 200 mM NaCl, 0.02 mg/ml BSA
pIC50: −log10 of the molar value.
RESULT TYPE: pIC50

# COMPOUND, pIC50
data = [
    ("CC(C)CN(C(=O)c1ccc(N(Cc2cccc3ccccc23)C(=O)c2ccc(NCc3ccccc3)cc2)cc1)c1ccc(C(=O)NCC(=O)O)cc1 [Trimer 1]", 4.91),
    ("CC(C)CN(C(=O)c1ccc(N(Cc2cccc3ccccc23)C(=O)c2ccc(NCc3ccccc3)cc2)c(OCc2cn(CC(=O)O)nn2)c1)c1ccc(C(=O)NCC(=O)O)cc1 [Trimer 2]", 4.40),
]

A. CC(C)CN(C(=O)c1ccc(N(Cc2cccc3ccccc23)C(=O)c2ccc(NCc3ccccc3)cc2)c(OCc2cn(CCCNC(=O)c3cc4ccccc4oc3=O)nn2)c1)c1ccc(C(=O)NCC(=O)O)cc1 [Trimer 4]
B. CC(C)CN(C(=O)c1ccc(N(Cc2cccc3ccccc23)C(=O)c2ccc(NCc3ccccc3)cc2)c(OCc2cn(CCOCCOCCOCCO)nn2)c1)c1ccc(C(=O)NCC(=O)O)cc1 [Trimer 3]
Field: lower pIC50 | Options: A / B Kindly give the label for the entry you pick.
B
(B: 4.38, A: 4.69)

###

- TESTED SYSTEM: Bcl-xL/BAK interaction (Homo sapiens)
- Construct: made in house
- PROCEDURE DETAILS: Fluorescence anisotropy competition assay, Bcl-xL/BAK
- Assay type: binding
- PROTOCOL CONDITIONS: Bcl-xL 131 nM, BODIPY-BAK 43 nM, phosphate buffer pH 7.5
- Procedure: Figure S8 – Fluorescence anisotropy competition assay testing the inhibition of the trimers against the Bcl-x L/BAK interaction; unfunctionalised trimer 1 and acid, ethylene glycol and coumarin-functionalised trimers 2, 3 and 4. Performed in phosphate buffer pH 7.5, 200 mM NaCl, 0.02 mg/ml BSA. Bcl-x L is fixed as 131 nM and BODIPY-BAK is at a concentration of 43 nM. The observed increase in anisotropy is likely to be the result of aggregation of the trimer to the BAK […] tracer and Bcl-x L complex. […]

# CPD SMILES, IC50 Bcl-xL/BAK
rows = [
    ("CC(C)CN(C(=O)c1ccc(N(Cc2cccc3ccccc23)C(=O)c2ccc(NCc3ccccc3)cc2)cc1)c1ccc(C(=O)NCC(=O)O)cc1", "No inhibition"),
    ("CC(C)CN(C(=O)c1ccc(N(Cc2cccc3ccccc23)C(=O)c2ccc(NCc3ccccc3)cc2)c(OCc2cn(CCOCCOCCOCCO)nn2)c1)c1ccc(C(=O)NCC(=O)O)cc1", "No inhibition"),
    ("CC(C)CN(C(=O)c1ccc(N(Cc2cccc3ccccc23)C(=O)c2ccc(NCc3ccccc3)cc2)c(OCc2cn(CC(=O)O)nn2)c1)c1ccc(C(=O)NCC(=O)O)cc1", "No inhibition"),
    ("CC(C)CN(C(=O)c1ccc(N(Cc2cccc3ccccc23)C(=O)c2ccc(NCc3ccccc3)cc2)c(OCc2cn(CCCNC(=O)c3cc4ccccc4oc3=O)nn2)c1)c1ccc(C(=O)NCC(=O)O)cc1", "No inhibition"),
]
